Provenance of the data: ChEMBL document CHEMBL1201862

Test system: Hs-578T
Test: NCI tumour cell line growth inhibition, 48 h
Activity calls are given as the source filed them. No stated cut-off is given here; in the data, active = GI50 up to about 1.1 µM and inactive = higher.
readout_type: GI50

Please review the following examples before continuing.
1. COc1ccc(/C=N/NC(=O)C2=C(N)N(c3ccccc3)C(=C(C#N)C#N)S2)cc1 : > 100 µM (inactive)
2. C=C1C(=O)OC2C3C(=C)[C@@H](OC(C)=O)CC3C(C)=CC(OC(=O)C(C)(O)C(C)OC(C)=O)[C@@H]12 (stereo not given in full) : 12.8 µM (inactive)

The recorded GI50 for entry CCN1CC2(C)CCC(OC)C34C5CC6CCC(O)(C5C(=O)O6)C(C(O)C23)C14 (stereo not given) equals > 100 µM (inactive)

Noted for Cc1cc(=O)c2cc(/N=C/c3ccc([N+](=O)[O-])o3)ccc2o1 : its GI50 reads > 100 µM (inactive)

Just so you know, measured GI50 for CC1(C(=O)O)CCC(C(=O)O)C(C)(C)O1 (stereo not given) came out at > 100 µM (inactive)
